These measurements were taken from patent US12084459B2.

test: toxicity in mice: body weight and observations after IP administration; format: in vivo; conditions: male mice, 100 mg/kg IP, day 12
parameter: body weight
// unit must come after the numeric part

Ask | # input compound: CC(C)c1ccc(-c2cn3nc(N4CCC(CN5CCN(CCO)CC5)CC4)sc3n2)cc1 ; wanted: its body weight
Reply | 37.3 g

---

experiment: toxicity in mice: body weight and observations after IP administration; type: in vivo; details: female mice, 200 mg/kg IP, day 8
parameter: body weight (g)
Just the number in g, nothing appended.

Ask | Item under review: CC(C)c1ccc(-c2cn3nc(N4CCC(CN5CCN(CCO)CC5)CC4)sc3n2)cc1 . Reported body weight?
Reply | 31.1

---

assay: toxicity in mice: body weight and observations after IP administration; type: in vivo; conditions: male mice, 400 mg/kg IP, day 3
parameter: body weight (g)
Write the value in g as a bare number.

Ask | Consider the molecule CC(C)c1ccc(-c2cn3nc(N4CCC(CN5CCN(CCO)CC5)CC4)sc3n2)cc1 [Compound E266] and give its measured body weight.
Reply | 41.3

---

experiment: toxicity in mice: body weight and observations after IP administration; type: in vivo; conditions: male mice, 200 mg/kg IP, day 9
parameter: body weight (g)
Numbers only here, please. The scale is g.

Ask | What value of body weight has been reported for the following compound? CC(C)c1ccc(-c2cn3nc(N4CCC(CN5CCN(CCO)CC5)CC4)sc3n2)cc1 [Compound E266]
Reply | 38

---

assay: toxicity in mice: body weight and observations after IP administration; type: in vivo; conditions: male mice, 400 mg/kg IP, day 1
parameter: body weight (g)
Expressed in g, but write only the number.

Ask | Name the reported body weight value associated with the compound CC(C)c1ccc(-c2cn3nc(N4CCC(CN5CCN(CCO)CC5)CC4)sc3n2)cc1
Reply | 40.3

---

Assay: toxicity in mice: body weight and observations after IP administration
Assay type: in vivo
Conditions: female mice, 200 mg/kg IP, day 6
Method: Compound (I) was dissolved in 20% hydroxypropylcyclodextrane and the volume of administration (IP) was 10 ml/kg.
parameter: body weight

Ask | What does the data say about its body weight? Entry: CC(C)c1ccc(-c2cn3nc(N4CCC(CN5CCN(CCO)CC5)CC4)sc3n2)cc1
Reply | 30.9 g

---

Assay: toxicity in mice: body weight and observations after IP administration
Assay type: in vivo
Settings: female mice, 100 mg/kg IP, day 5
Description: Compound (I) was dissolved in 20% hydroxypropylcyclodextrane and the volume of administration (IP) was 10 ml/kg.
parameter: body weight (g)
Express the result in g but write the number alone.

Ask | Give the measured body weight of CC(C)c1ccc(-c2cn3nc(N4CCC(CN5CCN(CCO)CC5)CC4)sc3n2)cc1 [Compound E266] .
Reply | 34

---

test: toxicity in mice: body weight and observations after IP administration; type: in vivo; conditions: male mice, 200 mg/kg IP, day 11
parameter: body weight
Value and unit, in that order.

Ask | Fill in the blank: the reported body weight of CC(C)c1ccc(-c2cn3nc(N4CCC(CN5CCN(CCO)CC5)CC4)sc3n2)cc1 is ____.
Reply | 38.2 g

---

test: toxicity in mice: body weight and observations after IP administration; type: in vivo; details: female mice, 100 mg/kg IP, day 7
parameter: body weight (g)
Expressed in g, but write only the number.

Ask | So what does the record say about body weight for CC(C)c1ccc(-c2cn3nc(N4CCC(CN5CCN(CCO)CC5)CC4)sc3n2)cc1 ?
Reply | 34
